Molecular target: L-Selectin (Homo sapiens)
Construct: purchased Research and Development Systems 728-LS
Sequence (P14151 39-332 limits assumed): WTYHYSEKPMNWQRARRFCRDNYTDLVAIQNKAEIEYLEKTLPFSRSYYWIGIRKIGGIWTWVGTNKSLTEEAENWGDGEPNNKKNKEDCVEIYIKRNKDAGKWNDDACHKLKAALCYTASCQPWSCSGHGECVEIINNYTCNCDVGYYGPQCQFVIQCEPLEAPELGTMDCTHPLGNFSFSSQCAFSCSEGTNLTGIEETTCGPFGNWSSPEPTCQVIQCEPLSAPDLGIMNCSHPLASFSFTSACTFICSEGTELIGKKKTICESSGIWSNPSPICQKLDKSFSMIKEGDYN
Assay: ELISA: inhibition of L-selectin/IgG binding to immobilized heparin (Heparin-BSA)
Details: L-Selectin binding to heparin; 50 μM
Recorded inhibition at 50 µM, one value per entry.
OBSERVABLE: inhibition at 50 µM

{"columns": ["MOLECULE", "OBSERVABLE", "VALUE_REPORTED"],
 "data": [
  ["CCOC(=O)c1c(NC(=O)c2ccc(S(=O)(=O)N3CCN(C(=O)OCC)CC3)cc2)sc2c1CCN(C(C)C)C2 [Compound 17]", "inhibition at 50 µM", "21%"],
  ["CCOC(=O)N1CCN(S(=O)(=O)c2ccc(C(=O)Nc3sc4c(c3C(N)=O)CC(C)(C)NC4(C)C)cc2)CC1 [Compound 24]", "inhibition at 50 µM", "29%"],
  ["CC(C)N1CCc2c(sc(NC(=O)c3ccc(S(=O)(=O)N(C)c4ccccc4)cc3)c2C(N)=O)C1 [Compound 13]", "inhibition at 50 µM", "68%"]
]}

The measurements presented in this section are drawn from patent US7365080B2.
